# MEASURED_TARGET: T1, human TRH receptor protein (human)
# T1 chain: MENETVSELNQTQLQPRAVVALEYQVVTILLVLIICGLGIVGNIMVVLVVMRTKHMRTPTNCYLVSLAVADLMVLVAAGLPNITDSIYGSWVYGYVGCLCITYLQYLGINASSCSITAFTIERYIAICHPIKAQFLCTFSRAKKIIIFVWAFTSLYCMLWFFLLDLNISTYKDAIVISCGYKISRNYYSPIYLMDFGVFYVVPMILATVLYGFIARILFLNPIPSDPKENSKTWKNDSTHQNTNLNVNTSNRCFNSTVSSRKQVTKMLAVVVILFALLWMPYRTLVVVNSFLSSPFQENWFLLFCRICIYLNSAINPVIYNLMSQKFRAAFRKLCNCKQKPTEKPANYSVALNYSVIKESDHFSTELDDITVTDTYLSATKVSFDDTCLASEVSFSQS
# EXPERIMENT_DESCRIPTION: competition with 10 nM 3H-TRH, CHO cells expressing human TRH receptor; compound at 10^-5 M
Square brackets hold non-standard residues; d marks the D form. Ends that are not written are not given here. Blc = γ-butyrolactone-γ-carbonyl group; pGlu = O=C1CC[C@@H](C(=O)O)N1; Nva = CCC[C@H](N)C(=O)O; His(3-Me) = 3-Me-His
REPORTED_METRIC: Antagonistic Rate (%)
Include the unit after the number when you answer.

Consider the binder [pGlu]-[Nva]-Pro-NH2 (SMILES CCC[C@H](NC(=O)[C@@H]1CCC(=O)N1)C(=O)N1CCC[C@H]1C(N)=O) [pGlu NVal Pro NH2] and give its measured Antagonistic Rate (%).
33.4%

Using the record for [pGlu]-[His(3-Me)]-Pro-NH2 [pGlu 3-Me-His Pro NH2] , report its Antagonistic Rate (%).
97.9%

# Antagonistic Rate (%) lookup, item Blc-His-Pro [Blc His Pro]
-0.1%

Param item = [pGlu]-His-Pro-NH2 [TRH (pGlu His Pro NH2)] ; retrieve measured Antagonistic Rate (%).
99.7%

Need Antagonistic Rate (%), item [pGlu]-Phe-Pro-NH2 [pGlu Phe Pro NH2]
74.2%

These data points were gathered from patent US5879896A.
